Test system: Mus musculus
assay: Antimalarial activity was assessed against Plasmodium berghei in mice (Mus musculus) at 320 mg/kg dosage of the compound; Toxic
Type: functional
measurement.name: toxic deaths (count)

INSERT INTO measurements (compound, measurement) VALUES
  ('CC(N/N=C(\S)N1CCN(c2ccccn2)CC1)c1nccc2ccccc12 (stereo not drawn)', 2),
  ('CC(N/N=C(\S)N(C)C1CCCCC1)c1nccc2ccccc12 (stereo not drawn)', 3),
  ('C/C(=N\N=C(/S)N1CC(C)OC(C)C1)c1nccc2ccccc12 (stereo not drawn)', 1),
  ('CC(N/N=C(\S)N1CCCCCC1)c1nccc2ccccc12 (stereo not drawn)', 3),
  ('CC1CCN(/C(S)=N/NC(C)c2nccc3ccccc23)CC1 (stereo not drawn)', 5),
  ('C/C(=N\N=C(/S)N(C)C)c1nccc2ccccc12', 5),
  ('CC(N/N=C(\S)N1CCCC1)c1nccc2ccccc12 (stereo not drawn)', 2),
  ('C/C(=N\N=C(/S)N1CCC(C)CC1)c1nccc2ccccc12', 5);

Source: ChEMBL document CHEMBL1122602
